For each of the variants below, state its polymerase ribozyme fitness (log ratio).
B1: TPR 5TU (parent)
chain: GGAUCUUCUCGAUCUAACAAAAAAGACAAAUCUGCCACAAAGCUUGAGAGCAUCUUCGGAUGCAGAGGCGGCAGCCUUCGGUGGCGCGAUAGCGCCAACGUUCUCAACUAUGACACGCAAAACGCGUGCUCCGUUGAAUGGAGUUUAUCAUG

variants of: B1; assay: polymerase ribozyme fitness, log enrichment relative to wild type (log ratio); higher = more active; in vitro selection for triplet polymerase activity
Variants at the floor of the assay were thinned out.
No unit in the answer, only the number.

*Q* Name the recorded polymerase ribozyme fitness (log ratio) of the item C51U C116G G140C in your answer.
*A* -4.07

*Q* Name the recorded polymerase ribozyme fitness (log ratio) of the item U56A A73G C76U in your answer.
*A* 0.764

*Q* Name the recorded polymerase ribozyme fitness (log ratio) of the item C10U C105A in your answer.
*A* -3.59

*Q* Name the recorded polymerase ribozyme fitness (log ratio) of the item A30G C95G in your answer.
*A* -3.11

*Q* Name the recorded polymerase ribozyme fitness (log ratio) of the item A16U A24U U33A C35U C87G in your answer.
*A* -4.15

*Q* Name the recorded polymerase ribozyme fitness (log ratio) of the item U56A G84C in your answer.
*A* -1.66

*Q* Name the recorded polymerase ribozyme fitness (log ratio) of the item U15G U53A A60C G83A C85U in your answer.
*A* -3.78

*Q* Name the recorded polymerase ribozyme fitness (log ratio) of the item A91G C95U C125U in your answer.
*A* -4.09

*Q* Name the recorded polymerase ribozyme fitness (log ratio) of the item C57U C125A in your answer.
*A* -0.844

*Q* Name the recorded polymerase ribozyme fitness (log ratio) of the item A47C A73U G124C in your answer.
*A* -3.78

*Q* Name the recorded polymerase ribozyme fitness (log ratio) of the item U15G C35U A41C A115G U145G in your answer.
*A* -4.04
